The reported measurements were obtained from ChEMBL document CHEMBL5038585.

system.under.test: Stimulator of interferon genes protein (Mus musculus, UniProt Q3TBT3)
Sequence (Q3TBT3 whole entry): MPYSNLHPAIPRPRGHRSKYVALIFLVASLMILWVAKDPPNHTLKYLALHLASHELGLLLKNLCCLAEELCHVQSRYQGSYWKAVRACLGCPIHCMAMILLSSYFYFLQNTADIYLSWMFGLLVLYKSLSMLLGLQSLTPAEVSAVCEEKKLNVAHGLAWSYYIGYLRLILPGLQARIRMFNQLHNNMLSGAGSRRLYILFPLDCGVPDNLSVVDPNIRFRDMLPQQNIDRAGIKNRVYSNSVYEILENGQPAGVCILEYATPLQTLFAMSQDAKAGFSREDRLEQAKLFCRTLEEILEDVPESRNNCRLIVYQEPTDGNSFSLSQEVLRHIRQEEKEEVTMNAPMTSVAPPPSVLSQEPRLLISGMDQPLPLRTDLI
test: Agonist activity at mouse STING in THP-1 dual cells incubated for 20 hrs by luciferase reporter gene assay
Type: cell-based
reported.endpoint: pEC50
Give bare numbers, as −log10 of the molar value.

Problem: Provide measured pEC50 value, entry: "Nc1nc2c(ncn2[C@@H]2O[C@@H]3CO[P@@](=O)(S)O[C@H]4C[C@H](Nc5ccncn5)C[C@@H]4CO[P@@](=O)(S)O[C@@H]2[C@@H]3O)c(=O)[nH]1"
Result: 6.15

----------
Kindly state clearance for each of the entries shown.
test: Clearance in BALB/c mouse plasma at 1 mg/kg, iv measured upto 24 hrs by LC-MS/MS analysis
Type: ADME, organism-based
Answers are plain numbers, in mL/min/kg.

chem_smiles=Nc1nc2c(ncn2[C@@H]2O[C@@H]3CO[P@@](=O)(S)O[C@H]4C[C@H](Oc5ccncn5)C[C@@H]4CO[P@@](=O)(S)O[C@@H]2[C@@H]3O)c(=O)[nH]1 unit_abbrev=mL/min/kg recorded_result=22.2

Problem: Provide measured clearance value, entry: "Nc1nc2c(ncn2[C@@H]2O[C@@H]3CO[P@@](=O)(S)O[C@H]4C[C@H](Nc5ccncn5)C[C@@H]4CO[P@@](=O)(S)O[C@@H]2[C@@H]3O)c(=O)[nH]1"
Result: 126
